Recorded values, source PubChem BioAssay AID330.

- Tested on: P388 leukemia ip, CD2F1 mice, survival T/C
- experimentalProtocol: NCI In Vivo Anticancer Drug Screen. Data for tumor model P388 Leukemia (intraperitoneal) in CD2F1 (CDF1) mice
- conditionNotes: endpoint: median survival time; dose: 200.0 mg/kg/injection; schedule: Q01DX001 (ip); vehicle: Klucel (hydroxypropylcellulose) (HPC); higher = longer survival
Toxic doses and inconclusive results are not listed.
assayEndpoint: T/C

Asked: Please give measured T/C of the following entry: `Cn1c(=S)[nH]c2c(c1=O)CCCN2`
Given back: 99 % of control

Asked: # return recorded T/C for entry CCOC(=O)C(OCC)C1=Cc2ccccc2CC1 (stereo not drawn)
Given back: 102 % of control

Asked: Identify measured T/C associated with `CN(C)C(=Nc1ccccc1)OC1=C/C(=C2/C=C(OC(=Nc3ccccc3)N(C)C)N=C2OC(=Nc2ccccc2)N(C)C)C(OC(=Nc2ccccc2)N(C)C)=N1`
Given back: 106 % of control

Asked: For the molecule `Cc1ccc(-c2cn3ccsc3n2)cc1` , report T/C.
Given back: 97 % of control

---

- System: P388 leukemia ip, CD2F1 mice, survival T/C
- experimentalProtocol: NCI In Vivo Anticancer Drug Screen. Data for tumor model P388 Leukemia (intraperitoneal) in CD2F1 (CDF1) mice
- conditionNotes: endpoint: median survival time; dose: 25.0 mg/kg/injection; schedule: Q01DX009 (ip); vehicle: distilled water + Tween-80; higher = longer survival
Toxic doses and inconclusive results are not listed.
assayEndpoint: T/C

# annotated cases, reported T/C shown
- compound: "COCCN=NNc1ccc(C#N)cc1"
  T/C: "105 % of control"
- compound: "CC(=O)NCCc1nc(-c2nc(C(=O)NCCC(C)C)cs2)cs1"
  T/C: "94 % of control"
- compound: "O=C(NC1CCOC1=O)OCc1ccccc1 (stereo not given)"
  T/C: "110 % of control"
- compound: "CCOC(=O)c1[nH]c(=O)[nH]c(=O)c1I"
  T/C: "105 % of control"
- compound: "C[As](C)SCC1OC(n2ccc(=O)[nH]c2=O)C2OC(C)(C)OC12 (stereo not given)"
  T/C: "110 % of control"
- compound: "CC(C)(C)[Si](C)(C)ONC(=O)c1ccccc1"
  T/C: "107 % of control"
- compound: "COc1ccc([N+](=O)[O-])c(C=O)c1OS(=O)(=O)c1ccc(C)c([N+](=O)[O-])c1"
  T/C: "93 % of control"
- compound: "O=C(O)Cn1ccnc1[N+](=O)[O-]"
  T/C: "100 % of control"

Asked: Please indicate T/C recorded for `COC(=O)c1cc(C)c(NC(C)=O)cc1C`
Given back: 98 % of control

Asked: Input `CCOC(=O)c1ccc(NC(=O)Nc2nc3ccc(OC)cc3s2)cc1` , output reported T/C.
Given back: 91 % of control

---

- Test system: P388 leukemia ip, CD2F1 mice, survival T/C
- experimentalProtocol: NCI In Vivo Anticancer Drug Screen. Data for tumor model P388 Leukemia (intraperitoneal) in CD2F1 (CDF1) mice
- conditionNotes: endpoint: median survival time; dose: 6.25 mg/kg/injection; schedule: Q01DX005 (ip); vehicle: saline with Tween-80; higher = longer survival
Inconclusive results and toxic doses are left out.
The compounds listed here are annotated with their T/C.

- compound: "CCn1c2ccccc2c2cc(NC(=S)NC(=O)c3cccs3)ccc21"
  T/C: "93 % of control"
- compound: "O=C1OC2C(O)COC2(N=Nc2ccc(Cl)cc2)/C1=N/Nc1ccccc1 (stereo not given)"
  T/C: "104 % of control"
- compound: "O=c1[nH]c2cc(Cl)ccc2n1C1CCN(CCCC(c2ccc(F)cc2)c2ccc(F)cc2)CC1"
  T/C: "106 % of control"

Asked: For the compound COc1cc2c(cc1OC)CN1CCCC1C2 (stereo not given) , give its measured T/C value.
Given back: 97 % of control

Asked: For the compound `Nc1cccc2c1-c1ccccc1C2=O` , give its reported T/C.
Given back: 98 % of control
